Reference for the values: patent US6197822A

target_under_test: recombinant human NPY 5 receptors (Homo sapiens)
Sequence (Q15761 1-445): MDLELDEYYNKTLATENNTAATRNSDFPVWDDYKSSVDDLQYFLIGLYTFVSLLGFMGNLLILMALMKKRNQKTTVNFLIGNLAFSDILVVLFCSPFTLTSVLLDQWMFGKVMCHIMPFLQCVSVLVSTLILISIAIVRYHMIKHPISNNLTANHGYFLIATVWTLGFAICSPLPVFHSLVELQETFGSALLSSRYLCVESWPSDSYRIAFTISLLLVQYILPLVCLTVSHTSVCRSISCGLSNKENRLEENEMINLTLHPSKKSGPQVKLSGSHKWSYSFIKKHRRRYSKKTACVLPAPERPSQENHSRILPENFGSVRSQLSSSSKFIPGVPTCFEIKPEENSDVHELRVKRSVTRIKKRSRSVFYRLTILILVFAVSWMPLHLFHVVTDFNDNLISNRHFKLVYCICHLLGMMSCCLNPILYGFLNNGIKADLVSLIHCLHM
assay_method_text: [125I]PYY binding at human NPY5 receptors expressed in Sf9 cells
condition_label: [125I]PYY(porcine) displacement, membranes of baculovirus-infected Sf9 cells; read-out: Ki (binding constants in the NPY5)
pKi: −log10 of the molar value.
outcome_measure: pKi

(I) CCN(CC)c1ccc(NC(=O)C(c2ccccc2)c2ccccc2)cc1
(II) Cc1ccc(NC(=O)C(c2ccccc2)c2ccccc2)cc1
Prompt: // task: argmin of pKi over [ I , II ] Your choice should be expressed through its label.
Completion: II
